Assay: in vivo
Details: mouse, oral, mice, 24 hours observation
Some compounds, each annotated with its measured LD50 at 24 h.
outcome.measure: LD50 at 24 h

compound: Cc1cc(C(=O)NC(N)=O)no1 [N-(5-methyl-3-isoxazolylcarbonyl)urea]
result: > 10000 mg/kg

compound: Cc1cc(C(=O)NC(=O)NC(C)C)no1
result: 7000 to 8000 mg/kg

compound: Cc1cc(C(=O)NC(=N)N)no1 [Compound 3]
result: 2000 to 3000 mg/kg

###

Listed molecules paired with reported Percentage of Blood-Sugar-Level (B.S.L.), 3 hr after
Tested on: blood-sugar
Experiment: Hypoglycemic activity in alloxan-treated rats (Blood-Sugar-Level, oral)
Format: in vivo, rat (alloxan-treated adult male)
Conditions: 10 mg/kg dose, alloxan rats, 3 hr after, change vs control
outcome.measure: Percentage of Blood-Sugar-Level (B.S.L.), 3 hr after

molecule: CCc1cc(C(=O)NC(=O)NC(C)C)no1 [Compound 1]
result: +2%

molecule: Cc1cc(C(=O)N(C)C(=O)N(C)C)no1 [Compound 5]
result: -39%

molecule: Cc1cc(C(=O)NC(=N)N)no1 [Compound 3]
result: -39%

molecule: Cc1cc(C(=O)NC(=O)N(C)C)no1 [Compound 2]
result: -59%

molecule: CNC(=O)N(C)C(=O)c1cc(C)on1 [Compound 4]
result: -36%

###

System: blood-sugar
Assay: Hypoglycemic activity in alloxan-treated rats (Blood-Sugar-Level, oral)
Format: in vivo, rat (alloxan-treated adult male)
Conditions: 10 mg/kg dose, alloxan rats, 1 hr after, change vs control
Where Percentage of Blood-Sugar-Level (B.S.L.), 1 hr after equals or exceeds -20%, the correct label is True; where it does not, the label is False.

input.smiles: Cc1cc(C(=O)NC(=O)N(C)C)no1
class: False

input.smiles: Cc1cc(C(=O)N(C)C(=O)N(C)C)no1
class: True

input.smiles: Cc1cc(C(=O)NC(=N)N)no1
class: True

input.smiles: CCc1cc(C(=O)NC(=O)NC(C)C)no1
class: True

input.smiles: CNC(=O)N(C)C(=O)c1cc(C)on1
class: True

###

System: Blood Free-Fatty-Acid
Experiment: Blood Free-Fatty-Acid (B.F.F.A.) lowering activity in fasted rats (oral)
Format: in vivo, rat (male)
Conditions: 100 mg/kg p.o., fasted rats, 5 hr after
outcome.measure: B.F.F.A. Level, 5 hr after (%)

compound: CCCCNC(=O)NC(=O)c1cc(C)on1
target: Blood Free-Fatty-Acid
recorded.number: -30
//
compound: Cc1cc(C(=O)NC(=O)NC(C)C)no1
target: Blood Free-Fatty-Acid
recorded.number: -49
//
compound: Cc1cc(C(=O)NC(=N)N)no1 [Compound 3]
target: Blood Free-Fatty-Acid
recorded.number: -8
//
compound: Cc1cc(C(=O)NC(=O)NC2CCCCC2)no1
target: Blood Free-Fatty-Acid
recorded.number: -23
//
compound: CCCCNC(=O)NS(=O)(=O)c1ccc(C)cc1 [Compound 6, Tolbutamide, reference compound]
target: Blood Free-Fatty-Acid
recorded.number: 0

###

Each item that follows carries a reported B.F.F.A. Level, 1 hr after.
Test system: Blood Free-Fatty-Acid
Test: Blood Free-Fatty-Acid (B.F.F.A.) lowering activity in fasted rats (oral)
Format: in vivo, rat (male)
Details: 100 mg/kg p.o., fasted rats, 1 hr after
outcome.measure: B.F.F.A. Level, 1 hr after (%)

compound: Cc1cc(C(=O)NC(=O)NC(C)C)no1
recorded.number: -75
//
compound: Cc1cc(C(=O)NC(=O)NC2CCCCC2)no1
recorded.number: -27
//
compound: Cc1cc(C(=O)NC(=N)N)no1 [Compound 3]
recorded.number: -70
//
compound: CCCCNC(=O)NS(=O)(=O)c1ccc(C)cc1 [Compound 6, Tolbutamide, reference compound]
recorded.number: -40
//
compound: CCCCNC(=O)NC(=O)c1cc(C)on1
recorded.number: -59
//
compound: Cc1cc(C(=O)NC(N)=S)no1
recorded.number: -60
